# Tested on: T47D
# Experiment: NCI tumour cell line growth inhibition, 48 h
Activity calls are given as the source filed them. Cut-off read from the data, not from the text of the source: active = GI50 up to about 1.1 µM and inactive = higher.
Would you mind answering with one of these outcomes? 1 = active, 0 = inactive

CNC(=O)CNC(=O)CCC(=O)OC    0
Nc1nn2c(=O)c3ccccc3nc2s1    0
NC(CSc1nc2ccccn2c1[N+](=O)[O-])C(=O)O (configuration not stated)    0
O=C1CCCC2(c3ccccc3)Nc3ccccc3N12 (configuration not stated)    0

Q: Per the records of this test, what outcome belongs to C=CCOC1(CC=C)C(=O)OC2C(O)COC21O (configuration not stated) ?
Ans: 0

Q: Per the records of this test, what outcome belongs to COC(=O)C(CC12CC3CC(CC(C3)C1)C2)NC(=O)C(N)CC(=O)O (configuration not stated) ?
Ans: 0

Q: Per the records of this test, what outcome belongs to Nc1nccc2c1ncn2[C@H]1C[C@H](O)[C@@H](CO)O1 ?
Ans: 0

Q: Per the records of this test, what outcome belongs to CO[C@@]12C[C@@H](C)[C@]34O[C@H]3C[C@]3(C)O[C@]43CC1=C(C)C(=O)O2 ?
Ans: 0

Q: Per the records of this test, what outcome belongs to CCOC(=O)c1c(NC(=O)c2cccs2)sc2c1CCC2 ?
Ans: 0

Q: Per the records of this test, what outcome belongs to Cc1nn2c(=O)c([N+](=O)[O-])c(/C=C/c3ccco3)nc2s1 ?
Ans: 0

Q: Per the records of this test, what outcome belongs to CN(C)c1ccc(/C=C2\N=C(NNc3ccccc3)NC2=O)cc1 ?
Ans: 0

Q: Per the records of this test, what outcome belongs to CCCCCC/C=C\CCCCCCCCCc1cccc(O)c1C(=O)O ?
Ans: 0

Q: Per the records of this test, what outcome belongs to CCOC(=O)c1sc2c(c1OC(=O)c1ccco1)c(=O)n(-c1ccccc1)c(=S)n2-c1ccccc1 ?
Ans: 0

* * *

# System: SK-MEL-28
# Experiment: NCI tumour cell line growth inhibition, 48 h
Calls of active or inactive are those of the source. No stated cut-off is given here; in the data, active = GI50 up to about 1.1 µM and inactive = higher.
Reported metric: GI50

Cc1ccc(O)c(/N=N\c2c(O)cc(S(=O)(=O)O)c3ccccc23)c1    45.3 µM (inactive)
O=C1NC(c2ccccc2)(c2ccccc2)C(=O)N1CCCCCCN1C(=O)NC(c2ccccc2)(c2ccccc2)C1=O    11 µM (inactive)
C[C@H](OCc1ccccc1)C(=O)N1CCS(=O)(=O)N2CCC[C@H]2C1=O    > 100 µM (inactive)

Q: Would you kindly share the measured GI50 for Cc1cc(S(=O)(=O)Nc2nc(N)n(C)n2)c(S)cc1Cl ?
Ans: > 10 µM (inactive)

Q: Would you kindly share the measured GI50 for COC(=O)/C=C1/CCC2[C@@H](C(=O)CC3[C@]2(C)CCC[C@@]3(C)C(=O)OC)C1C (stereo not given in full) ?
Ans: 13.3 µM (inactive)

* * *

Listed molecules paired with reported GI50
# System: UO-31
# Experiment: NCI tumour cell line growth inhibition, 48 h
Active and inactive are the calls of the source. Cut-off read from the data, not from the text of the source: active = GI50 up to about 1.1 µM and inactive = higher.

COc1ccc(/C=C2\C[C@H]3[C@@H]4CCC5=C[C@@H](N6CCCC6)CC[C@]5(C)[C@H]4CC[C@]3(C)[C@H]2O)cc1    1.72 µM (inactive)
Cn1c(=O)c2ccccc2[n+]2c(-c3cccc([N+](=O)[O-])c3)csc12    > 100 µM (inactive)
Cc1cc(C)c(S(=O)(=O)N[C@@H](/C=C(\Br)CO)C(C)C)c(C)c1    33 µM (inactive)
CC(C)CCCC(C)[C@H]1CC[C@H]2n3c(nnc3-c3ccccc3)CCC[C@]12C (stereo not given in full)    10.4 µM (inactive)

Okay, next one:
Q: Would you kindly share the measured GI50 for COC(=O)C12CC3CC(C1)CC(C(=O)OC)(C3)C2 ?
Ans: > 100 µM (inactive)

* * *

# Tested on: NCI-H226
# Experiment: NCI tumour cell line growth inhibition, 48 h
The source made the active and inactive calls. Rule as the data show it: active = GI50 up to about 1.1 µM and inactive = higher.
Would you mind answering with one of these outcomes? y for active, n for inactive

Study these solved cases before continuing.
CCOC(=O)c1nnn(CCCCO)c1C(=O)OCC    n
COC(=O)C1(c2cc3ccccc3n2S(=O)(=O)c2ccccc2)CC2C=CC1NC2 (stereo unspecified)    n
CC(=O)C(/N=N\C1CCC(S(=O)(=O)NB2N=CS2)CC1)C(=O)Nc1ccccc1C (stereo unspecified)    n
NC(CSc1nc2ccccn2c1[N+](=O)[O-])C(=O)O (stereo unspecified)    n
CC(C)c1ccc(O)c(=O)c(O)c1.CC(C)c1ccc(O)c(=O)cc1.CC(C)c1cccc(=O)c(O)c1.CC(C)c1ccccc(=O)c1O    n
Nc1nc(Cl)cc(NCC2(CO)CC(CCc3ccccc3)C2)n1 (stereo unspecified)    n
Cc1cc(Cl)ccc1Nc1nc2c(s1)C(=O)c1ccccc1C2=O    n
CN(C)c1cccc2c(S(=O)(=O)NCCCNCCN)cccc12    n
Cc1cc2c(cc1-c1cc3c(cc1C)C(C(C)C)=C(O)C(=O)/C3=C\Nc1cccc3c(N)cccc13)/C(=C/Nc1cccc3c(N)cccc13)C(=O)C(O)=C2C(C)C    n
CC1(O)CCn2c(=O)c3cc4ccccc4cc3c(=O)n2C1O (stereo unspecified)    n

Q: Per the records of this test, what outcome belongs to C=C(CC)C(=O)c1ccc(OCC(=O)O)c(Cl)c1Cl ?
Ans: n

Q: Per the records of this test, what outcome belongs to Cc1ccc2nc3cc(C)c(=O)cc-3sc2c1 ?
Ans: n

Q: Per the records of this test, what outcome belongs to CCCCCCCCCCCCCCCCCc1nnc(N)o1 ?
Ans: n

Q: Per the records of this test, what outcome belongs to CC(C)(C)OC(=O)N/N=C(/N)Cc1ccccc1 ?
Ans: n

Q: Per the records of this test, what outcome belongs to O=C(CC1SC(Nc2ccccc2Cl)=NC1=O)Nc1ccc(Cl)cc1Cl (stereo unspecified) ?
Ans: n

Q: Per the records of this test, what outcome belongs to CC(=O)Oc1cc(C(F)(F)F)ccc1C(=O)OC1(C)OC(=O)c2ccc(C(F)(F)F)cc2O1 (stereo unspecified) ?
Ans: n

Q: Per the records of this test, what outcome belongs to COc1cccc([C@@]2(O)c3c(ccc(O)c3OC)[C@H]2OC)c1OC ?
Ans: n

* * *

# Tested on: SF-295
# Experiment: NCI tumour cell line growth inhibition, 48 h
Activity calls are given as the source filed them. No stated cut-off is given here; in the data, active = GI50 up to about 1.1 µM and inactive = higher.
Reported metric: GI50

Past entries and their recorded results:
CCN1CCC(O)(c2ccc(Cl)cc2)C(C(=O)c2ccc(Cl)cc2)C1 (stereo not given)    > 100 µM (inactive)
CCC12CCCN(Cc3ccccc3)C1c1c(n(C)c3ccccc13)C(C(=O)OC)C2 (stereo not given)    75.7 µM (inactive)

Q: Would you kindly share the measured GI50 for COc1ccc2c(c1OC)C(C(Cl)(Cl)Cl)N1CCc3cc4c(cc3C1=C2)OCO4 (stereo not given) ?
Ans: 9.31 µM (inactive)

Q: Would you kindly share the measured GI50 for CN1N=C(Nc2ccccc2)Sc2c1cnn(-c1ccccc1)c2=O ?
Ans: 73.3 µM (inactive)

Q: Would you kindly share the measured GI50 for CCOc1cc(C2CC(c3ccc(NS(=O)(=O)c4cc([N+](=O)[O-])ccc4C)cc3)=NN2c2ccc([N+](=O)[O-])cc2[N+](=O)[O-])ccc1O (stereo not given) ?
Ans: 12.1 µM (inactive)

Q: Would you kindly share the measured GI50 for Cc1cc(S(N)(=O)=O)c(S/C(=N\Nc2ccc([N+](=O)[O-])cc2)c2ccc(Cl)cc2)cc1Cl ?
Ans: 2.11 µM (inactive)

Q: Would you kindly share the measured GI50 for CCCN1C(=O)CNC(=O)c2[nH]cnc21 ?
Ans: > 100 µM (inactive)

Q: Would you kindly share the measured GI50 for CC(=O)Nc1ccccc1-c1nc2ccccc2nc1C ?
Ans: > 100 µM (inactive)

Q: Would you kindly share the measured GI50 for CCc1nc2ccccc2c(=O)n1/N=C(\N=N\c1ccc(Cl)cc1)c1ccccc1 ?
Ans: 25 µM (inactive)

Q: Would you kindly share the measured GI50 for CC(=O)Oc1cc(C(F)(F)F)ccc1C(=O)OC1(C)OC(=O)c2ccc(C(F)(F)F)cc2O1 (stereo not given) ?
Ans: > 100 µM (inactive)

* * *

# Tested on: HT-29
# Experiment: NCI tumour cell line growth inhibition, 48 h
Activity calls are given as the source filed them. Rule as the data show it: active = GI50 up to about 1.1 µM and inactive = higher.
Reported metric: GI50

Past entries and their recorded results:
COc1cc(CN2CCCCC2)cc2cc(C(=O)O)c(=O)oc12    > 100 µM (inactive)
Cc1ccc(C(=O)Nc2ccc(S(=O)(=O)O)c3cc(S(=O)(=O)O)cc(S(=O)(=O)O)c23)cc1NC(=O)c1cccc(NC(=O)Nc2cccc(C(=O)Nc3cc(C(=O)Nc4ccc(S(=O)(=O)O)c5cc(S(=O)(=O)O)cc(S(=O)(=O)O)c45)ccc3C)c2)c1    62.4 µM (inactive)
CCOc1cc(C2CC(c3ccc(NS(=O)(=O)c4cc([N+](=O)[O-])ccc4C)cc3)=NN2c2ccc([N+](=O)[O-])cc2[N+](=O)[O-])ccc1O (stereo not drawn)    41.6 µM (inactive)
CCCc1nn(C)c(CCC(=O)N(Cc2ccccc2)Cc2ccccc2)c1CC    > 100 µM (inactive)
CS(=O)(=O)c1ccc(COP(N)(=O)N(CCCl)CCCl)cc1 (stereo not drawn)    > 100 µM (inactive)
COC(=O)C1C(C(=O)OC)C1(Br)CBr (stereo not drawn)    24 µM (inactive)

Q: Would you kindly share the measured GI50 for CCN(CC)c1ccc2c(c1)N=C1N=CC=CN1C2(c1ccc(N(C)C)cc1)c1ccc(N(C)C)cc1 ?
Ans: 3.12 µM (inactive)

Q: Would you kindly share the measured GI50 for Cc1nc(C(N)=S)sc1C(/C=C/c1ccc(Cl)c(Cl)c1)=N/NC(C)(C)C ?
Ans: > 100 µM (inactive)
